reported-conditions: in acetonitrile, 303.15 K
measurement-kind: solubility (mole fraction)
One number for each entry.

// query Bench note: what solubility (mole fraction) did COc1cc(/C=C/C(=O)CC(=O)/C=C/c2ccc(O)c(OC)c2)ccc1O show?
// result 0.00149

###

reported-conditions: in isopropanol, 318.15 K
measurement-kind: solubility (mole fraction)
Answers are plain numbers.

// query Bench note: what solubility (mole fraction) did COc1cc(/C=C/C(=O)CC(=O)/C=C/c2ccc(O)c(OC)c2)ccc1O show?
// result 0.00398

###

reported-conditions: in acetone, 303.15 K
measurement-kind: solubility (mole fraction)

// query Bench note: what solubility (mole fraction) did COc1cc(/C=C/C(=O)CC(=O)/C=C/c2ccc(O)c(OC)c2)ccc1O show?
// result 0.0189

###

reported-conditions: in ethanol, 283.15 K
measurement-kind: solubility (mole fraction)
Answers are plain numbers.

// query Bench note: what solubility (mole fraction) did COc1cc(/C=C/C(=O)CC(=O)/C=C/c2ccc(O)c(OC)c2)ccc1O show?
// result 0.00048

###

reported-conditions: in n-butanol, 288.15 K
measurement-kind: solubility (mole fraction)
One number for each entry.

// query Bench note: what solubility (mole fraction) did COc1cc(/C=C/C(=O)CC(=O)/C=C/c2ccc(O)c(OC)c2)ccc1O show?
// result 0.00066

###

reported-conditions: in acetone, 313.15 K
measurement-kind: solubility (mole fraction)
One number for each entry.

// query Bench note: what solubility (mole fraction) did COc1cc(/C=C/C(=O)CC(=O)/C=C/c2ccc(O)c(OC)c2)ccc1O show?
// result 0.0257

###

reported-conditions: in n-hexane, 283.15 K
measurement-kind: solubility (mole fraction)
Answers are plain numbers.

// query Bench note: what solubility (mole fraction) did COc1cc(/C=C/C(=O)CC(=O)/C=C/c2ccc(O)c(OC)c2)ccc1O show?
// result 0.00011

###

reported-conditions: in DMSO, 283.15 K
measurement-kind: solubility (mole fraction)
Give bare numbers.

// query Bench note: what solubility (mole fraction) did COc1cc(/C=C/C(=O)CC(=O)/C=C/c2ccc(O)c(OC)c2)ccc1O show?
// result 0.16

###

reported-conditions: in n-butanol, 308.15 K
measurement-kind: solubility (mole fraction)
One number for each entry.

// query Bench note: what solubility (mole fraction) did COc1cc(/C=C/C(=O)CC(=O)/C=C/c2ccc(O)c(OC)c2)ccc1O show?
// result 0.00114

###

reported-conditions: in m-xylene, 298.15 K
measurement-kind: solubility (mole fraction)

// query Bench note: what solubility (mole fraction) did COc1cc(/C=C/C(=O)CC(=O)/C=C/c2ccc(O)c(OC)c2)ccc1O show?
// result 0.00031

###

reported-conditions: in methanol, 303.15 K
measurement-kind: solubility (mole fraction)
Answers are plain numbers.

// query Bench note: what solubility (mole fraction) did COc1cc(/C=C/C(=O)CC(=O)/C=C/c2ccc(O)c(OC)c2)ccc1O show?
// result 0.00057

###

reported-conditions: in THF, 308.15 K
measurement-kind: solubility (mole fraction)
Numbers only.

// query Bench note: what solubility (mole fraction) did COc1cc(/C=C/C(=O)CC(=O)/C=C/c2ccc(O)c(OC)c2)ccc1O show?
// result 0.27

###

reported-conditions: in THF, 288.15 K
measurement-kind: solubility (mole fraction)
Give bare numbers.

// query Bench note: what solubility (mole fraction) did COc1cc(/C=C/C(=O)CC(=O)/C=C/c2ccc(O)c(OC)c2)ccc1O show?
// result 0.157
